Reference source: ChEMBL document CHEMBL4196146

# Test system: HT-22
# testDetails: Neuroprotective activity against glutamate-induced cell death in mouse HT22 cells assessed as increase in cell viability at 1.6 uM pretreated for 2 hrs followed by glutamate-challenge and measured after 20 hrs by MTT assay (reference value: 23 +/- 3.57%)
# Assay type: functional, cell-based
Active and inactive are the calls of the source. The calls are words filed in the database; no cut-off is given here.
experimentalReadout: Activity

>>> print(df.to_string())
                                  structure  targetundertest  observed
0  COc1cc([C@H](O)[C@H](COC(=O)/C=C\c2ccc(O)cc2)Oc2ccc(/C=C/COC(=O)/C=C/c3ccc(O)cc3)cc2OC)ccc1O            HT-22    Active
1  COc1cc([C@@H](O)[C@H](COC(=O)/C=C/c2ccc(O)cc2)Oc2ccc(/C=C/COC(=O)/C=C\c3ccc(O)cc3)cc2OC)ccc1O            HT-22    Active
2  COc1cc([C@@H](O)[C@H](COC(=O)/C=C\c2ccc(O)cc2)Oc2ccc(/C=C/COC(=O)/C=C/c3ccc(O)cc3)cc2OC)ccc1O            HT-22    Active

---

# Test system: HT-22
# testDetails: Neuroprotective activity against glutamate-induced cell death in mouse HT22 cells assessed as increase in cell viability at 1.6 uM pretreated for 2 hrs followed by glutamate-challenge and measured after 20 hrs by MTT assay (reference value: 23 +/- 3.57%)
# Assay type: functional, cell-based
Active and inactive are the calls of the source. The calls are words filed in the database; no cut-off is given here.
experimentalReadout: Activity

>>> df
                                  structure  observed
0  COc1cc(C[C@@H](COC(=O)/C=C/c2ccc(O)cc2)[C@H](COC(=O)/C=C/c2ccc(O)cc2)Cc2ccc(O)c(OC)c2)ccc1O    Active
1  COc1cc(C[C@@H](COC(=O)/C=C\c2ccc(O)cc2)[C@H](COC(=O)/C=C\c2ccc(O)cc2)Cc2ccc(O)c(OC)c2)ccc1O    Active
2  COc1cc([C@@H](O)[C@H](COC(=O)/C=C/c2ccc(O)cc2)Oc2ccc(/C=C/COC(=O)/C=C/c3ccc(O)cc3)cc2OC)ccc1O    Active
3  COc1cc([C@H](O)[C@H](COC(=O)/C=C/c2ccc(O)cc2)Oc2ccc(/C=C/COC(=O)/C=C\c3ccc(O)cc3)cc2OC)ccc1O    Active
4  COc1cc([C@H](O)[C@H](COC(=O)/C=C/c2ccc(O)cc2)Oc2ccc(/C=C/COC(=O)/C=C/c3ccc(O)cc3)cc2OC)ccc1O    Active
5  COc1cc(C[C@@H](COC(=O)/C=C\c2ccc(O)cc2)[C@H](COC(=O)/C=C/c2ccc(O)cc2)Cc2ccc(O)c(OC)c2)ccc1O    Active
